These entries and their values trace back to patent US20090048303A1.

Target: NMDA receptors of rat cortical neurons (Rattus norvegicus, UniProt Q00960)
Construct: primary neocortical cell cultures derived from 17 day old Charles River rat embryos; endogenous in cells; host or cells: primary rat embryonic (E17) neocortical cell culture, 3-7 days in vitro
Sequence (Q00960 27-1482, other chains not shown): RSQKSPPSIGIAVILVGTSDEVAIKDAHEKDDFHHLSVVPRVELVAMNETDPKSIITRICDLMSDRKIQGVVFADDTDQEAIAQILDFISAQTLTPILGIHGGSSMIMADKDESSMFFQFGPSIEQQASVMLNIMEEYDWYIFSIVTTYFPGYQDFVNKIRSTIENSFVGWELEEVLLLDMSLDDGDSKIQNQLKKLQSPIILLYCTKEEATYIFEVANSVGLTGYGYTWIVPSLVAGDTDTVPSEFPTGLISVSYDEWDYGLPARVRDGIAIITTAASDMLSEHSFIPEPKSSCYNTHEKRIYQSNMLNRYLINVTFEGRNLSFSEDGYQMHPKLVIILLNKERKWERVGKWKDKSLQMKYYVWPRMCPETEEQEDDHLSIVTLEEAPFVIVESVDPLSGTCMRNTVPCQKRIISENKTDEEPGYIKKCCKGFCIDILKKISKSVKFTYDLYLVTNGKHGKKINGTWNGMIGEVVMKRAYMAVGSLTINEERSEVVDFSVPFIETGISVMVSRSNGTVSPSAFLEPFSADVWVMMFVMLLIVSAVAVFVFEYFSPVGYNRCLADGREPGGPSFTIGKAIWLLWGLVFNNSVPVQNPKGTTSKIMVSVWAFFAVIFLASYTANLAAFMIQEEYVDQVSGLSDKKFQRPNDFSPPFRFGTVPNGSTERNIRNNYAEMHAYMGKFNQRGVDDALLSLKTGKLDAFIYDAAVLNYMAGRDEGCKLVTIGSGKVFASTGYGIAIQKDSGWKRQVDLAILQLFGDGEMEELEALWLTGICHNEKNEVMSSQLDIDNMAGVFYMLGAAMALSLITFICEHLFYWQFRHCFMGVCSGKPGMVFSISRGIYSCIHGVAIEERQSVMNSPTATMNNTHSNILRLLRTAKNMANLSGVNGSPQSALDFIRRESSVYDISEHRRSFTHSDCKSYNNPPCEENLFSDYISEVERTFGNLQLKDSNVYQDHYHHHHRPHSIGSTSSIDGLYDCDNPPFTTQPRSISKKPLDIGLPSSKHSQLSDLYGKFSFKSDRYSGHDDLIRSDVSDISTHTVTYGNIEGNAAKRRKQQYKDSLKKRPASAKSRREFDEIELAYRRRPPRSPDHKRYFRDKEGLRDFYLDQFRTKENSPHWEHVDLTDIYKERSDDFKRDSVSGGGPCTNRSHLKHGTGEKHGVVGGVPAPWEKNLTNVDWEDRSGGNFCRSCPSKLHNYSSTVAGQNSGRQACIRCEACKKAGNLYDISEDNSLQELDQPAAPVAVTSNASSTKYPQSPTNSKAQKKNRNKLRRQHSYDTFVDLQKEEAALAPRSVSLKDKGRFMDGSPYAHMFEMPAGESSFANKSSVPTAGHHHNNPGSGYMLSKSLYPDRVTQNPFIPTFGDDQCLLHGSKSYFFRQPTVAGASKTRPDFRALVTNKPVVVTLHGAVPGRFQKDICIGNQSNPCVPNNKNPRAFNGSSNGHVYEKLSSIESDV
Experiment: NMDA antagonist potency by intracellular calcium measurement (plate reader fluorimeter) in rat cortical cell culture
Type: cell-based
property: IC50 (nM)

INSERT INTO results (molecule, property, reading) VALUES
  ('CC(CN1CCC(Cc2ccccc2)CC1)C(O)c1ccc(O)cc1 (stereo not shown) [Ro 25.6981, reference compound]', 'IC50', 159);

---

Biological target: NMDA receptors of rat cortical neurons (Rattus norvegicus, UniProt Q00960)
Construct: primary neocortical cell cultures derived from 17 day old Charles River rat embryos; endogenous in cells; host or cells: primary rat embryonic (E17) neocortical cell culture, 3-7 days in vitro
Test: NMDA antagonist potency by intracellular calcium measurement (plate reader fluorimeter) in rat cortical cell culture
Type: cell-based
Conditions: rat cortical cells, 40 μM NMDA, fluorimetric method; read-out: Cortical cells IC50
In this section we review reported IC50 values for a set of molecules.
property: IC50 (nM)

INSERT INTO measurements (molecule_smiles, reading) VALUES
  ('COc1ccc2[nH]c(C(=N)NCc3cc(F)cc(F)c3)cc2c1', 318),
  ('COc1ccc(OC)c(CNC(=N)c2cc3ccccc3[nH]2)c1', 341),
  ('COc1ccc(CNC(=N)c2cc3cc(Cl)ccc3[nH]2)c(OC)c1', 369),
  ('N=C(NCc1cc(F)ccc1F)c1cc2ccccc2[nH]1', 224),
  ('COc1ccc2[nH]c(C(=N)NCc3cccc(Cl)c3)cc2c1', 373),
  ('COc1ccc(OC)c(CNC(=N)c2cc3cc(Cl)ccc3[nH]2)c1', 417),
  ('Cc1ccccc1C/N=C(\N)c1cc2ccccc2[nH]1', 170),
  ('N=C(NCc1ccccc1Br)c1cc2ccccc2[nH]1', 277),
  ('N=C(NCc1cccnc1)c1cc2cc(Cl)ccc2[nH]1', 125),
  ('N=C(NCc1cc(F)ccc1F)c1cc2cc(F)ccc2[nH]1', 359),
  ('N=C(NCc1ccccc1F)c1cc2ccccc2[nH]1', 232),
  ('N=C(NCc1cc(F)cc(F)c1)c1cc2cc(F)ccc2[nH]1', 594),
  ('COc1cccc(CNC(=N)c2cc3cc(F)ccc3[nH]2)c1', 211);

---

Target: NMDA receptors of rat cortical neurons (Rattus norvegicus, UniProt Q00960)
Construct: primary neocortical cell cultures derived from 17 day old Charles River rat embryos; endogenous in cells; host or cells: primary rat embryonic (E17) neocortical cell culture, 3-7 days in vitro
Assay: NMDA antagonist potency by intracellular calcium measurement (plate reader fluorimeter) in rat cortical cell culture
Type: cell-based
Conditions: rat cortical cells, 40 μM NMDA, fluorimetric method; read-out: Cortical cells IC50
pIC50: −log10 of the molar value.
property: pIC50

INSERT INTO assay_data (compound, reading) VALUES
  ('COc1ccc2[nH]c(C(=N)NCc3ccccc3C(F)(F)F)cc2c1 [Compound 119]', 6.40),
  ('COc1ccc2[nH]c(C(=N)NCc3ccccc3)cc2c1 [Compound 118]', 6.65),
  ('N=C(NCc1ccccc1Cl)c1cc2cc(Cl)ccc2[nH]1 [Compound 87]', 6.37),
  ('COc1cccc(OC)c1C/N=C(\N)c1cc2cc(Cl)ccc2[nH]1 [Compound 112]', 7.16),
  ('CCOc1ccccc1CNC(=N)c1cc2cc(Cl)ccc2[nH]1 [Compound 94]', 6.67),
  ('COc1ccc(OC)c(CNC(=N)c2cc3cc(F)ccc3[nH]2)c1 [Compound 71]', 6.34),
  ('COc1cccc(CNC(=N)c2cc3cc(OC)ccc3[nH]2)c1 [Compound 129]', 7.28),
  ('COc1ccc2[nH]c(C(=N)NCc3c(OC)cccc3OC)cc2c1 [Compound 147]', 7.59),
  ('O=c1[nH]c2ccc([S+]([O-])CCN3CCC(Cc4ccc(F)cc4)CC3)cc2o1 (centres unmarked) [CI-1041, reference compound]', 8.18),
  ('N=C(NCc1cccc(Br)c1)c1cc2cc(Cl)ccc2[nH]1 [Compound 103]', 6.59),
  ('CCOc1ccccc1CNC(=N)c1cc2ccccc2[nH]1 [Compound 19]', 7.12),
  ('Cc1ccc(CC2(O)CCN(CCOc3ccc(O)cc3)CC2)cc1 [Co-101244, reference compound]', 7.64),
  ('Cc1ccccc1CNC(=N)c1cc2cc(Cl)ccc2[nH]1 [Compound 109]', 6.66),
  ('N=C(NCc1c(F)cccc1F)c1cc2cc(Cl)ccc2[nH]1 [Compound 108]', 6.13),
  ('N=C(NCc1ccccc1F)c1cc2cc(Cl)ccc2[nH]1 [Compound 107]', 6.31),
  ('N=C(NCc1ccccc1OC(F)(F)F)c1cc2cc(Cl)ccc2[nH]1 [Compound 106]', 6.70),
  ('N=C(NCc1cc(Cl)cc(Cl)c1)c1cc2cc(F)ccc2[nH]1 [Compound 73]', 6.68),
  ('N=C(NCc1cccc(F)c1)c1cc2cc(Cl)ccc2[nH]1 [Compound 81]', 6.36),
  ('CCOc1ccccc1CNC(=N)c1cc2cc(OC)ccc2[nH]1 [Compound 131]', 7.24),
  ('COc1cccc(OC)c1CNC(=N)c1cc2ccccc2[nH]1 [Compound 36]', 8.27),
  ('Cc1ccccc1CNC(=N)c1cc2cc(F)ccc2[nH]1 [Compound 68]', 6.80),
  ('COc1ccc2[nH]c(C(=N)NCc3cccc(Br)c3)cc2c1 [Compound 139]', 6.40),
  ('COc1cccc(CNC(=N)c2cc3cc(Cl)ccc3[nH]2)c1 [Compound 92]', 6.50),
  ('N=C(NCc1cc(F)cc(F)c1)c1cc2cc(Cl)ccc2[nH]1 [Compound 110]', 6.15),
  ('N=C(NCc1c(F)cccc1F)c1cc2ccccc2[nH]1 [Compound 31]', 6.84),
  ('N=C(NCc1cccc(Br)c1)c1cc2ccccc2[nH]1 [Compound 26]', 6.38),
  ('COc1ccc2[nH]c(C(=N)NCc3c(F)cccc3F)cc2c1 [Compound 143]', 6.80),
  ('COc1ccc2[nH]c(C(=N)NCc3ccc(OC)c(OC)c3)cc2c1 [Compound 126]', 6.28),
  ('CCOc1ccccc1CNC(=N)c1cc2cc(F)ccc2[nH]1 [Compound 59]', 7.29),
  ('COc1ccc2[nH]c(C(=N)NCc3cccnc3)cc2c1 [Compound 134]', 7.00),
  ('COc1ccc2[nH]c(C(=N)NCc3cc(F)ccc3F)cc2c1 [Compound 142]', 6.69),
  ('COc1ccc2[nH]c(C(=N)NCc3cccc(C)c3)cc2c1 [Compound 128]', 6.66),
  ('COc1cccc(OC)c1C/N=C(\N)c1cc2cc(F)ccc2[nH]1 [Compound 72]', 7.77),
  ('COc1ccc2[nH]c(C(=N)NCc3ccccc3Br)cc2c1 [Compound 138]', 6.63),
  ('COc1ccc(CNC(=N)c2cc3cc(OC)ccc3[nH]2)c(OC)c1 [Compound 123]', 6.89),
  ('COc1ccc(OC)c(CNC(=N)c2cc3cc(OC)ccc3[nH]2)c1 [Compound 146]', 6.54),
  ('O=C(CCN1CCC(Cc2ccc(F)cc2)CC1)c1ccc2[nH]c(=O)oc2c1 [EMD 95885, reference compound]', 7.46),
  ('N=C(NCc1cc(Cl)cc(Cl)c1)c1cc2ccccc2[nH]1 [Compound 38]', 6.80);
